- ASSAY_SYSTEM: CYP2C8 (Homo sapiens (Human))
- Sequence (P10632 whole entry): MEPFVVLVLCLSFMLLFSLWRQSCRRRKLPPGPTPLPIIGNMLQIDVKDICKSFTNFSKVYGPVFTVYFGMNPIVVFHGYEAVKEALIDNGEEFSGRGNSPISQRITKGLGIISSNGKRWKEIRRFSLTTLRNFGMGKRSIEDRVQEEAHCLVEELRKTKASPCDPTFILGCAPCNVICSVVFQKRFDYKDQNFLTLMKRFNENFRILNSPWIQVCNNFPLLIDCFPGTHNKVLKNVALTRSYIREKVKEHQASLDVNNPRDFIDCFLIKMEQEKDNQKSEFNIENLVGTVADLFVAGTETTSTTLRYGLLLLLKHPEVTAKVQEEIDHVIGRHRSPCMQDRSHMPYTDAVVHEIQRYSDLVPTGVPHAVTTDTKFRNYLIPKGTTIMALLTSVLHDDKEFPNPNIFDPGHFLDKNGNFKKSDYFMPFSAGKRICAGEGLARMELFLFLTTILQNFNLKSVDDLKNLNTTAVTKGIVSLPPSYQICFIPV
- METHOD_SUMMARY: Cytochrome P450 inhibition (fluorescence), CYP2C8
- Assay type: in vitro ADME
ASSAY_ENDPOINT: IC50

Prompt line: Requested read-out: IC50. Entry: C=CCn1c(=O)c2cnc(Nc3ccc(N4CCN(C)CC4)cc3)nc2n1-c1ccc2c(n1)C(C)(O)C1(CC1)C2 (stereo not shown)
Response line: > 10 µM

====

- METHOD_SUMMARY: Metabolic stability in liver microsomes, mouse
- Assay type: in vitro ADME
- CONDITION_LABEL: read-out: T1/2 liver microsomes Mouse
ASSAY_ENDPOINT: half-life at 1 µM (min)
Entry rule: numbers only, all in min.

Prompt line: Requested read-out: half-life at 1 µM. Entry: C=CCn1c(=O)c2cnc(Nc3ccc(N4CCN(C)CC4)cc3)nc2n1-c1cccc(C(C)(C)O)n1 [AZD1775, reference compound]
Response line: 26
